- systemTested: EPHB1 (UniProt P54762)
- Sequence (P54762 whole entry, looked up): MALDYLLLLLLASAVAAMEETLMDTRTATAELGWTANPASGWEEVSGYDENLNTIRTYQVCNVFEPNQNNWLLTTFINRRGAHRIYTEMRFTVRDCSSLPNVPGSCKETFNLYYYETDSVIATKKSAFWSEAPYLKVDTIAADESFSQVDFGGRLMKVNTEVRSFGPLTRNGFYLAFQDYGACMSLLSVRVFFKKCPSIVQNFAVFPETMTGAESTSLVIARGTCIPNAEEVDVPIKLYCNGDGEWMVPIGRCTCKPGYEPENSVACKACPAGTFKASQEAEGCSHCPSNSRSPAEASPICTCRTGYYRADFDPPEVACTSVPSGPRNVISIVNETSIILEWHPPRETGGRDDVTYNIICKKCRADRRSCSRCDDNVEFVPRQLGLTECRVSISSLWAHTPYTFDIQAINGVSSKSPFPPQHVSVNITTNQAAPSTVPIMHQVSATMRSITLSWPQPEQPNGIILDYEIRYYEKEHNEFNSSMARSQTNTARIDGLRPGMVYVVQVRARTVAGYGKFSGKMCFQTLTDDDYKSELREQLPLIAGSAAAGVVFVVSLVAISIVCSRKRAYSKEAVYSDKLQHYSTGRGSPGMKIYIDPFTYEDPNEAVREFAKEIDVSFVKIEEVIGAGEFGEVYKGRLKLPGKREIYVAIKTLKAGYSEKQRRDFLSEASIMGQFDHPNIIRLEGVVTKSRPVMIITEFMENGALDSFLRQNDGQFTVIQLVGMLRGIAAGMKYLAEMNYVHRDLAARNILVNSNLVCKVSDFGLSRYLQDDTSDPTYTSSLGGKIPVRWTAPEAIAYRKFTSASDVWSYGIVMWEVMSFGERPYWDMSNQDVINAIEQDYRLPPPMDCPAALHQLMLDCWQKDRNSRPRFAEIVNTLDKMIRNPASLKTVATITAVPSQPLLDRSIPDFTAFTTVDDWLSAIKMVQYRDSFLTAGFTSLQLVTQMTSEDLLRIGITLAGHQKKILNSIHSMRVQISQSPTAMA
- methodNotes: phosphorylation enrichment, bacterial display (enrichment ratio); higher = better substrate or ligand; peptides without Tyr show the background
property: phosphorylation enrichment
// return a plain number; no unit text

Query: Which phosphorylation enrichment is reported for this sequence? LLREWYVQDPY [SIX3_Y225_L226V]
Result: 0.598

Query: Which phosphorylation enrichment is reported for this sequence? YSIDYYRVGGH [NTRK2_Y707_T704I]
Result: 1.52

Query: Which phosphorylation enrichment is reported for this sequence? SLFQFYFQQKG [CHKB_Y381_R377L]
Result: 0.657

* * *

- systemTested: c-Src SH2;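 note: peptide library displayed on the E. coli surface as eCPX fusions, selected cells deep-sequenced, score is each peptide's frequency after selection divided by its frequency in the input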
- methodNotes: SH2 binding enrichment of the phosphorylated peptide, bacterial display (enrichment ratio); higher = better substrate or ligand; peptides without Tyr show the background
Answer each item with its documented SH2 binding enrichment.
// return a plain number; no unit text

Query: Which SH2 binding enrichment is reported for this sequence? VAFVYYKSIGP [ADGRL4_Y302]
Result: 0.574

Query: Which SH2 binding enrichment is reported for this sequence? FGGRDYSLDEF [MYOF_Y1705_YF]
Result: 0.75

Query: Which SH2 binding enrichment is reported for this sequence? EEGESDVCSSD [DCX_Y125_Y125D]
Result: 0.699

Query: Which SH2 binding enrichment is reported for this sequence? FFCKFYNKSED [RYR1_Y4864_R4861C]
Result: 0.42

Query: Which SH2 binding enrichment is reported for this sequence? ADRNHYRRFRR [YBX1_Y145_P149R_YF]
Result: 0.428

Query: Which SH2 binding enrichment is reported for this sequence? ETLLFYGCRRS [POR_Y564_YF]
Result: 0.299

Query: Which SH2 binding enrichment is reported for this sequence? RENGPYFASFP [GDAP2_Y487_T489A_YF]
Result: 0.534

Query: Which SH2 binding enrichment is reported for this sequence? KGYRGYSYDDI [TMEM230_Y110]
Result: 3.92

Query: Which SH2 binding enrichment is reported for this sequence? YRRITYYNWRH [PDE6B_Y556_H557Y]
Result: 0.547

Query: Which SH2 binding enrichment is reported for this sequence? VISNAYVDLAP [HSD17B4_Y602]
Result: 3.79

Query: Which SH2 binding enrichment is reported for this sequence? LKEIRYPPFTD [ALDH3B2_Y362_H361R_YF]
Result: 0.605

Query: Which SH2 binding enrichment is reported for this sequence? ECKLLYSRKEG [PTPN11_Y263]
Result: 0.616

Query: Which SH2 binding enrichment is reported for this sequence? DLKFHYDNTAG [KDR_Y1214_P1210L]
Result: 0.552

Query: Which SH2 binding enrichment is reported for this sequence? EFKDAYTFAAD [BRDT_Y335_K336T_YF]
Result: 0.703

Query: Which SH2 binding enrichment is reported for this sequence? CTTIHYNYMFN [TP53_Y234_C238F]
Result: 1.06

Query: Which SH2 binding enrichment is reported for this sequence? FKWAVYCIIGR [NUP93_Y391_R388W_YF]
Result: 1.21

Query: Which SH2 binding enrichment is reported for this sequence? STDDGCIDLQF [TMEM230_Y29_Y29C]
Result: 0.76

Query: Which SH2 binding enrichment is reported for this sequence? LAVNPYGPPDP
Result: 0.528

Query: Which SH2 binding enrichment is reported for this sequence? ELPEKYSQNIC [PKP2_Y626_Y631C]
Result: 0.493

Query: Which SH2 binding enrichment is reported for this sequence? ETKKQYDSFTF [TMED3_Y85_YF]
Result: 0.513

Query: Which SH2 binding enrichment is reported for this sequence? KASGKYFAMKI [AKT3_Y173_YF]
Result: 1.21

Query: Which SH2 binding enrichment is reported for this sequence? GLRSYYETSKM [MAGED2_Y449]
Result: 0.842

Query: Which SH2 binding enrichment is reported for this sequence? TEVIWYKGDEE
Result: 0.478

Query: Which SH2 binding enrichment is reported for this sequence? SEELHYFVQNH [UQCRC2_Y207]
Result: 0.587

Query: Which SH2 binding enrichment is reported for this sequence? FFTEEYVRAHP [DOCK2_Y1555_D1558A]
Result: 0.431

Query: Which SH2 binding enrichment is reported for this sequence? AEEKEYHAEEG [EGFR_Y869_G873E]
Result: 0.552

Query: Which SH2 binding enrichment is reported for this sequence? IHHIDYYKKTT [FGFR1_Y653]
Result: 0.567
